assay: folding stability dG unfold from chymotrypsin proteolysis; higher = more stable
readout_label: folding stability dG unfold (kcal/mol)
Give the value, in units of kcal/mol, as a plain number.

Worked cases, folding stability dG unfold given:
record_sequence	unit_tag	reported_measurement
SAGGSADSVTFTDPNVEEQIVIPPYVIFKYPDGSVRIIAFDDGDKAEILEEIPFVPPLEPLHPDLESAGGSA [r15_393_TrMRF]	kcal/mol	1.11
SAGGSAGGSAGGSKKTIKVRIKIEVDGKTYEITVELPEEGMSLEELLKKFPNAKITEIESAGGSAGGSAGGS [r4_278_TrROS_Hall]	kcal/mol	3.08
SAGGPATLTFEFPAEDGSRVRVEVTVEEVPFVDPRTGEPVAPFLKVHVKVTVFDEDGEAHEAEFELLSAGGS [r8_474_TrMRF]	kcal/mol	4.21
SAGGKEYTAKVVEIKKVGNKIFIKIKLSDGRELTIEIKTPEEAKKLKVGDTVKITVNEDGSLTIEVLSAGGS [r16_2_TrROS_Hall]	kcal/mol	4.33
SLSEEEAKDNPEEANEKMQPPPVPPIPLPVPIRNPDNKQEFPAPFEIRTLPNHLEFRFPGNGKPFPVPIDSA [r9_548_TrROS]	kcal/mol	2.87
SAGGSKERTYRVLIRNPDGELEEIEVSEEELEALLSLPPSATVRIVTEDGEEKTVTINVEKVELKESAGGSA [r2_222_TrROS_Hall]	kcal/mol	3.48

Please list folding stability dG unfold recorded for the sequence SAGTAKELAELLPGATVEVDEETGTVTVTVELDGYTVRIEIRVDPETGEIVEIRITVTNPDGEEREFELSAG [r5_367_TrROS_Hall]
2.92

Please list folding stability dG unfold recorded for the sequence STLEQILDAIESMPPGWVFRIKIHHPNGEPHEHRFNMTYDDIKAQLENMIDHHPGQPIKIKIEFMPPEDFSA [r9_37_TrROS]
3.72

Please list folding stability dG unfold recorded for the sequence SAGGSAGGSDKYVVVIRVVNKETKKVTTLVFEGLKTPEELKAAVEALLPPGVVKVEIRVVKLPSAGGSAGGS [r20_29_TrROS_Hall]
3.28

Please list folding stability dG unfold recorded for the sequence SEKLTEEEVEKLAEELAKELEEETGKKVTVEVEVEKVEVEKDGEKEEVEVVRIKITVDPETGEVTIEVEPSA [r9_9_TrROS_Hall]
1.43

Please list folding stability dG unfold recorded for the sequence SAGAEVEVVELTDEEIEALAKELNPDVTIEVVVVRVPPPPEKVEVRDPETGETVTLTVTPDGEIRAEKSAGG [r19_70_TrROS_Hall]
-0.235

Please list folding stability dG unfold recorded for the sequence SAGGSAGGMKTKTYTIPLSQVSSIDPSGTVSEEEVKALGLPPNFKATVVPLPGSEEAVEVTVPESAGGSAGG [r6_553_JUSTAS]
0.115

Please list folding stability dG unfold recorded for the sequence SAGGSAGGSAGGGMSFKKRKGSISLTLRVTLTLPNGTPATLDIELELEEETVEPVYPELESAGGSAGGSAGG [r7_926_JUSTAS]
4.76

Please list folding stability dG unfold recorded for the sequence SAGKTIVLPPEMTKEQIEALAKELAEEEGFEKVELVEYDEEKGVFTVKVKVDGKEKTIEIKIVSPEELESAG [r5_912_TrROS_Hall]
2.62
